system: human GluN1/GluN2B NMDA receptors (Homo sapiens, UniProt Q05586+Q13224)
Sequence (Q13224 27-1484, other chains not shown): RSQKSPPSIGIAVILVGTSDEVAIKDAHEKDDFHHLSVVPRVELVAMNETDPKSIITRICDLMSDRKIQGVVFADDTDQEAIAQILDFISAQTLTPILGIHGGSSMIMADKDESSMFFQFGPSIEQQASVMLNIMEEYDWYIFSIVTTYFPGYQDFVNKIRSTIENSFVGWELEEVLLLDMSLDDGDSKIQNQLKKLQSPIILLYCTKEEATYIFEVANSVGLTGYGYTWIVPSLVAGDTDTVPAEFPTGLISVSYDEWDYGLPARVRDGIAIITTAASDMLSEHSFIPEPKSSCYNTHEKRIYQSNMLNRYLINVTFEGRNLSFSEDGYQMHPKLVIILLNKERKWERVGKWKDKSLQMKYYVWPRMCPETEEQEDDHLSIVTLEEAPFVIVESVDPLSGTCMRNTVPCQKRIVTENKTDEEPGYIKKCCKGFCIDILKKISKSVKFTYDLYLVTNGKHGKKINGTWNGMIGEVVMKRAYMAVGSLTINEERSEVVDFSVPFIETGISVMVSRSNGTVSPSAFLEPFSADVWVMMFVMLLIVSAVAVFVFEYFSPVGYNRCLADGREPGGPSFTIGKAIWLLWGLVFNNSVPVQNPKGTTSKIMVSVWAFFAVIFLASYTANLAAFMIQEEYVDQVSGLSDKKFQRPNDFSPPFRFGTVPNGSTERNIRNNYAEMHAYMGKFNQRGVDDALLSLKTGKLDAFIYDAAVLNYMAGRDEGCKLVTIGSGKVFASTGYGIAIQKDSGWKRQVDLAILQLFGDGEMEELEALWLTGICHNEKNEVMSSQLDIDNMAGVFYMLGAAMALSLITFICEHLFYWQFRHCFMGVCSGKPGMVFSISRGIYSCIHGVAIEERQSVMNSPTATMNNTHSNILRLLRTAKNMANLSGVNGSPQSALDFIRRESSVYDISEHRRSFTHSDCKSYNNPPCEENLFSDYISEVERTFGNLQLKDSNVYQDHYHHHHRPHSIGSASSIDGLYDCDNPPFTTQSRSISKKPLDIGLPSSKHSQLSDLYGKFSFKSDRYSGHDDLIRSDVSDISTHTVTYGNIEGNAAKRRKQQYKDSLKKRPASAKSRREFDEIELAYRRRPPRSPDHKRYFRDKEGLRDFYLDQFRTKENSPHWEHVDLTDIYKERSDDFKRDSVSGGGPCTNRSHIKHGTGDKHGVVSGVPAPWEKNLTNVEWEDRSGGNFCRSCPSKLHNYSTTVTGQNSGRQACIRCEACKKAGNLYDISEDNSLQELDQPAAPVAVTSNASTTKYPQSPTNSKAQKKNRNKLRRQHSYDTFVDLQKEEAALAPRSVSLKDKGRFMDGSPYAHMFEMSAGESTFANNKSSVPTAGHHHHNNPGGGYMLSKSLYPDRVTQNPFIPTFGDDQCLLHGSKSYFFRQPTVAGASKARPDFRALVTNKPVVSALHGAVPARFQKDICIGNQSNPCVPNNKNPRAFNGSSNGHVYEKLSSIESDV
measurement_notes: Cell-based calcium flux (FLIPR) assay on cloned human NR1/NR2B ion channels expressed in mammalian cells
assay_setup: standard assay; human GluN1/GluN2B, calcium flux (FLIPR), glutamate ~EC80
measured_metric: IC50 (µM)
A number alone suffices; assume µM.

The examples below pair each entry with its known result.
compound=CN(C)c1ccnc(OCc2cn(-c3cccc(C(C)(F)F)c3)nn2)n1 system="human GluN1/GluN2B NMDA receptors (Homo sapiens, UniProt Q05586+Q13224)" output_unit=µM test_value=0.026
compound=OCc1ccnc(OCc2cn(-c3cccc(C(F)F)c3)nn2)n1 system="human GluN1/GluN2B NMDA receptors (Homo sapiens, UniProt Q05586+Q13224)" output_unit=µM test_value=0.408
compound=Fc1ccc(-n2cc(COc3ccccn3)nn2)cc1C(F)(F)F system="human GluN1/GluN2B NMDA receptors (Homo sapiens, UniProt Q05586+Q13224)" output_unit=µM test_value=3.04
compound=FC(F)c1cccc(-n2cc(COc3ncccn3)nn2)c1 system="human GluN1/GluN2B NMDA receptors (Homo sapiens, UniProt Q05586+Q13224)" output_unit=µM test_value=0.493
compound=Cc1ccc(-n2cc(COc3ncc(F)cn3)nn2)cc1 system="human GluN1/GluN2B NMDA receptors (Homo sapiens, UniProt Q05586+Q13224)" output_unit=µM test_value=2.69

Look up IC50: Fc1cnc(OCc2cn(-c3cccc(C(F)F)c3)nn2)nc1
0.325

If you can, please state the reported IC50 value of CC(F)(F)c1cccc(-n2cc(COc3nccc(N)n3)nn2)c1 .
0.183

Consider the compound Cc1ccc(-n2cc(COc3ncc(C)cn3)nn2)cc1 and give its measured IC50.
0.271

Can you share its IC50? I mean this compound: Cc1cnc(NCc2cn(-c3ccc(F)c(OC(F)F)c3)nn2)nc1
0.064

Quick check: IC50 of CC(=O)c1cnc(OCc2cn(-c3cccc(C(C)(F)F)c3)nn2)nc1 ?
0.01

IC50 lookup needed for Cc1cnc(OCc2cn(-c3ccc(OC(F)(F)F)cc3)nn2)nc1 , thanks.
1.13

Need IC50, item Cc1cccc(-n2cc(COc3ncc(Cl)cn3)nn2)c1
0.033

Given Cc1ccccc1-n1cc(COc2ncc(Cl)cn2)nn1 , state its recorded IC50.
4.8

Entry Cn1ccnc1NCc1cn(-c2ccc(F)c(OC(F)F)c2)nn1 has what IC50?
1.87

Which IC50 reading was recorded for the compound FC(F)(F)Oc1cccc(-n2cc(COc3ncccn3)nn2)c1 ?
0.538

Consider the compound CNc1ccnc(OCc2cn(-c3cccc(C(C)(F)F)c3)nn2)n1 and give its measured IC50.
0.026

# query: IC50 of entry Cc1cccc(-n2cc(COc3ncc(F)cn3)nn2)c1
0.34

// lookup IC50 for FC(F)Oc1cc(-n2cc(CNc3ncccn3)nn2)ccc1Cl
0.331

# input compound: Fc1ccc(-n2cc(COc3ncc(C(F)(F)F)cn3)nn2)cc1C(F)F ; wanted: its IC50
0.007

Requested read-out: IC50. Entry: COCc1ccnc(OCc2cn(-c3cccc(C(F)F)c3)nn2)n1
0.36

Consider the compound shown here: Fc1ccc(-n2cc(COc3ncccn3)nn2)cc1OC(F)F What is its recorded IC50?
0.018

Request the reported IC50 associated with Cc1cccc(OCc2cn(-c3ccc(F)c(OC(F)F)c3)nn2)n1
0.022

IC50 for Cc1ccc(-n2cc(COc3ncccn3)nn2)cc1 ?
4.42

// lookup IC50 for COc1cnc(OCc2cn(-c3ccc(Cl)c(OCCF)c3)nn2)nc1
0.089

What IC50 value was documented for this compound, Cc1cccc(-n2cc(COc3ncc(F)c(C)n3)nn2)c1 ?
0.065

// returns reported IC50 for input COc1cnc(OCc2cn(-c3cccc(C(C)(F)F)c3)nn2)nc1
0.003

Which measured IC50 value corresponds to COc1cnc(OCc2cn(-c3cccc(C)c3)nn2)nc1 ?
0.009

Sample FC(F)c1cccc(-n2cc(COc3ncc(Cl)cn3)nn2)c1 — what was its IC50?
0.019
